Emax listing for selected molecules.
- target-system: human 5-HT2C receptor (Homo sapiens)
- Sequence (P28335 33-458): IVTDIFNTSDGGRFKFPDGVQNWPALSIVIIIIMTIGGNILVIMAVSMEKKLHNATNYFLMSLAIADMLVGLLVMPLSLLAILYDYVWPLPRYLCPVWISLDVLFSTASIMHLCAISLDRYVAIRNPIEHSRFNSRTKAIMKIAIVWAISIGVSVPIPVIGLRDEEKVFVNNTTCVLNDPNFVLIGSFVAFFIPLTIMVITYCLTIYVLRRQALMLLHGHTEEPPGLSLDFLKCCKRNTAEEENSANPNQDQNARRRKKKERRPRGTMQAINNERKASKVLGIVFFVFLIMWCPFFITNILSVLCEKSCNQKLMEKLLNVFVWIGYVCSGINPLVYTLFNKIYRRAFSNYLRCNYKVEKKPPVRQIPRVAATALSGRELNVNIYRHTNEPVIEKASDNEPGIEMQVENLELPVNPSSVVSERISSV
- measurement-protocol: calcium mobilization (FLIPR) in CHO cells stably expressing the human 5-HT2C receptor
- Type: cell-based
- condition-label: CHO, read-out: 5-HT2C Function EMax (%)
Counter-ions that a name gives are not always drawn.
measured-parameter: Emax (%)

1. NCC1CCc2cc(F)cc(-c3ccccc3Cl)c2O1 (stereo not shown) [Compound 37, hydrochloride]: 100
2. CNC[C@@H]1CCc2cccc(-c3ccccc3C)c2O1 [Compound 25, hydrochloride]: 90
3. Cc1ccccc1-c1cccc2c1O[C@H](CN)CC2 [Compound 33, hydrochloride]: 80
4. CNC[C@H]1CCc2cccc(-c3c(Cl)cccc3Cl)c2O1 [Compound 35, hydrochloride]: 90
5. NC[C@H]1C=Cc2cc(F)cc(-c3cc(Cl)ccc3Cl)c2O1 [Compound 63, hydrochloride]: 90
6. NC[C@H]1CCc2cccc(-c3c(Cl)cccc3Cl)c2O1 [Compound 36, hydrochloride]: 80
7. NC[C@H]1CCc2cc(F)cc(-c3cc(Cl)ccc3Cl)c2O1 [Compound 46, hydrochloride]: 90
8. CNCC1CCc2cccc(-c3ccccc3Cl)c2O1 (stereo not shown) [Compound 1, hydrochloride]: 80
9. CNC[C@H]1CCc2cccc(-c3cccnc3)c2O1 [Compound 9, hydrochloride]: 100
10. CNC[C@H]1CCc2cccc(-c3cc(Cl)ccc3Cl)c2O1 [Compound 3, hydrochloride]: 90
11. CNC[C@H]1CCc2cccc(-c3ccccc3OC)c2O1 [Compound 6, hydrochloride]: 90
12. NC[C@H]1C=Cc2cc(F)cc(-c3ccccc3Cl)c2O1 [Compound 64, hydrochloride]: 90
13. CNC[C@H]1CCc2cc(F)cc(-c3ccccc3Cl)c2O1 [Compound 39, hydrochloride]: 100
14. NC[C@H]1CCc2cccc(-c3ccccc3)c2O1 [Compound 14, hydrochloride]: 80
15. Cc1ccccc1-c1cc(F)cc2c1O[C@@H](CN)CC2 [Compound 49, hydrochloride]: 90
16. NC[C@H]1CCc2cc(F)cc(-c3cccnc3)c2O1 [Compound 50, hydrochloride]: 90
17. COc1ccc(-c2cccc3c2O[C@@H](CN)CC3)c(OC)c1 [Compound 16, hydrochloride]: 100
18. CNC[C@H]1CCc2cccc(-c3ccccc3Cl)c2O1 [Compound 10, hydrochloride]: 100
19. COc1ccccc1-c1cc(F)cc2c1O[C@@H](CN)CC2 [Compound 38, hydrochloride]: 80
20. Cc1ccccc1-c1cccc2c1O[C@@H](CN)CC2 [Compound 17, hydrochloride]: 80
21. NC[C@@H]1CCc2cccc(-c3ccccc3Cl)c2O1 [Compound 27, hydrochloride]: 80
22. NCC1C=Cc2cc(F)cc(-c3ccccc3Cl)c2O1 (stereo not shown) [Compound 62, hydrochloride]: 100
23. NC[C@H]1CCCc2cc(F)cc(-c3c(Cl)cccc3Cl)c2O1 [Compound 68, hydrochloride]: 80
24. NC[C@@H]1CCc2cccc(-c3ccc(Cl)cc3Cl)c2O1 [Compound 29, hydrochloride]: 80
25. NC[C@@H]1CCc2cccc(-c3cc(Cl)ccc3Cl)c2O1 [Compound 28, hydrochloride]: 100
26. NC[C@H]1CCc2cccc(-c3ccc(Cl)cc3Cl)c2O1 [Compound 13, hydrochloride]: 100
27. NCC1CCc2cccc(-c3ccccc3Cl)c2O1 (stereo not shown) [Compound 2, trifluoroacetate]: 80
28. CNC[C@@H]1CCc2cccc(-c3cc(Cl)ccc3Cl)c2O1 [Compound 20, hydrochloride]: 90
29. NC[C@H]1CCc2cc(F)cc(-c3ccccc3)c2O1 [Compound 48, hydrochloride]: 90
30. CNC[C@H]1CCc2cccc(-c3ccccc3C)c2O1 [Compound 8, hydrochloride]: 100
31. CNC[C@H]1CCc2cccc(-c3ccc(Cl)cc3Cl)c2O1 [Compound 4, hydrochloride]: 80
32. NC[C@H]1CCc2cccc(-c3cc(Cl)ccc3Cl)c2O1 [Compound 12, hydrochloride]: 90
33. CNCC1C=Cc2cc(F)cc(-c3ccccc3Cl)c2O1 (stereo not shown) [Compound 61, hydrochloride]: 90
34. NC[C@H]1CCc2cccc(-c3cccnc3)c2O1 [Compound 18, hydrochloride]: 90
